# target entity: DCN1 (DCUND1) protein PONY domain (Homo sapiens (Human))
# Sequence (Q96GG9 60-248): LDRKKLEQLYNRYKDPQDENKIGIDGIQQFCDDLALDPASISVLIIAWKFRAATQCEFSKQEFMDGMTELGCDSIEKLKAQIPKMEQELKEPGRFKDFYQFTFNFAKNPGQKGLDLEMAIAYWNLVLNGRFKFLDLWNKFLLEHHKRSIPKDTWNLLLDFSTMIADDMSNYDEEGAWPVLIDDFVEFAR
# procedure summary: TR-FRET assay (binding to DCN-1, displacement of FAM-labeled probe)
# particulars: 24 hr after treatment with compound; read-out: TR FRET IC50 24 hr
Listing of entries alongside the reported IC50.

Past entries and their recorded results:
• C=CC(=O)Nc1cccc([C@H]2c3c(C)nn(-c4ccccc4)c3N(CC)C(=O)[C@H]2NC(=O)c2cccc(C(F)(F)F)c2)c1 (racemic) = > 3000 nM
• C=C(CN1CCOCC1)C(=O)NCc1cccc([C@@H]2c3cnn(-c4ccccc4)c3N(CC)C(=O)[C@H]2NC(=O)c2cccc(C(F)(F)F)c2)c1 = ≤ 200 nM
• C=C(CN1CCC12COC2)C(=O)NCc1cccc([C@@H]2c3cnn(-c4ccccc4)c3N(CC)C(=O)[C@H]2NC(=O)c2ccn(C(F)(F)F)n2)c1 = ≤ 200 nM
• CCN1C(=O)[C@@H](NC(=O)c2cccc(C(F)(F)F)c2)[C@@H](c2cc(F)cc(NC(=O)/C=C/CN(C)C)c2)c2cnn(-c3ccccc3)c21 (racemic) = 1000 to 3000 nM
• CCN1C(=O)[C@@H](NC(=O)c2cccc(C(F)(F)F)c2)[C@H](c2cccc(CNC(=O)C3=CCN(C)C3)n2)c2cnn(-c3ccccc3)c21 = 1000 to 3000 nM

### Prompt So what does the record say about IC50 for C=C(C(=O)NCc1cccc([C@@H]2c3cnn(-c4ccccc4)c3N(CC)C(=O)[C@H]2NC(=O)c2nccc(C(F)(F)F)n2)c1)C(C)N1CCC12COC2 (stereo partly shown) ?
### Response ≤ 200 nM

### Prompt Quick one: IC50 for "C=C(CN1CCOCC1)C(=O)NCc1cccc([C@@H]2c3cnn(-c4ccccc4)c3N(CC)C(=O)[C@H]2NC(=O)c2ccn(C(F)F)n2)c1" ?
### Response ≤ 200 nM

### Prompt Give the measured IC50 of C=C(CN1CCOCC1)C(=O)Nc1cccc([C@H]2c3c(C)nn(-c4ccccc4)c3N(CC)C(=O)[C@@H]2NC(=O)c2cccc(C(F)(F)F)c2)c1 (racemic) .
### Response ≤ 200 nM

### Prompt Using the record for "C=C(CN1CCC1)C(=O)NCc1cccc([C@H]2c3cnn(-c4ccccc4)c3N(CC)C(=O)[C@@H]2NC(=O)c2cccc(C(F)(F)F)c2)c1" , report its IC50.
### Response ≤ 200 nM

### Prompt Could you share which IC50 value was measured for "C=C(CN1CCC1)C(=O)NCc1cccc([C@@H]2c3cnn(-c4ccccc4)c3N(CC)C(=O)[C@H]2NC(=O)c2nccc(C(F)(F)F)n2)c1" ?
### Response ≤ 200 nM

### Prompt Which value of IC50 has been reported for "C=C(CN1CC(C)(O)C1)C(=O)NCc1cccc([C@@H]2c3cnn(-c4ccccc4)c3N(CC)C(=O)[C@H]2NC(=O)c2cccc(C(F)(F)F)c2)c1" in the records?
### Response ≤ 200 nM

### Prompt Entry "C=C(CN1CC2CC(C1)O2)C(=O)NCc1cccc([C@@H]2c3cnn(-c4ccccc4)c3N(CC)C(=O)[C@H]2NC(=O)c2cccc(C(F)(F)F)c2)c1" : reported IC50 = ?
### Response ≤ 200 nM

### Prompt Data request, read-out IC50, for C/C=C/S(=O)(=O)Nc1cccc([C@H]2c3c(C)nn(-c4ccccc4)c3N(CC)C(=O)[C@@H]2NC(=O)c2cccc(C(F)(F)F)c2)c1 (racemic)
### Response ≤ 200 nM

### Prompt I'd like to know its IC50. The molecule in question is "CCN1CC=C(C(=O)Nc2cccc([C@@H]3c4c(C)nn(-c5ccccc5)c4N(CC)C(=O)[C@H]3NC(=O)c3ccn(C(F)(F)F)n3)c2)C1"
### Response ≤ 200 nM

### Prompt If you can, please state the reported IC50 value of "C=C(CN1CC2(COC2)C1)C(=O)NCc1cccc([C@@H]2c3c(C)nn(-c4ccccc4)c3N(CC)C(=O)[C@H]2NC(=O)c2cccc(C(F)(F)F)c2)c1" .
### Response ≤ 200 nM

### Prompt Entry under review: "C=C(CN1CCOCC1)C(=O)NCc1cccc([C@@H]2c3cnn(-c4ccccc4)c3N(CC)C(=O)[C@H]2NC(=O)c2ccn(CC(F)(F)F)n2)c1" . Reported IC50?
### Response ≤ 200 nM

### Prompt For the molecule CCN1C(=O)[C@H](NC(=O)c2cccc(C(F)(F)F)c2)[C@@H](c2ccccc2-n2sccc2=O)c2cnn(-c3ccccc3)c21 (racemic) , what IC50 is on record?
### Response 1000 to 3000 nM

### Prompt What does the record list as IC50 for "C=C(CN1CCOCC1)C(=O)NCc1cccc([C@H]2c3cnn(-c4ccccc4)c3N(CC)C(=O)[C@@H]2NC(=O)c2cccc(C(F)(F)F)c2)c1" ?
### Response 1000 to 3000 nM

### Prompt Which value of IC50 has been reported for C=C(C(=O)NCc1cccc([C@@H]2c3cnn(-c4ccccc4)c3N(CC)C(=O)[C@H]2NC(=O)c2ccn(C(F)(F)F)n2)c1)C(C)N1CCC12COC2 (stereo partly shown) in the records?
### Response ≤ 200 nM

### Prompt Suppose we examine the molecule C=CC(=O)N(C)c1ccccc1[C@H]1c2cnn(-c3ccccc3)c2N(CC)C(=O)[C@@H]1NC(=O)c1cccc(C(F)(F)F)c1 (racemic) ; what IC50 value has been reported?
### Response 1000 to 3000 nM

### Prompt Request the reported IC50 associated with "C=C(CN1C[C@@H]2C[C@H]1CO2)C(=O)NCc1cccc([C@@H]2c3cnn(-c4ccccc4)c3N(CC)C(=O)[C@@H]2NC(=O)c2cccc(C(F)(F)F)c2)c1"
### Response 200 to 1000 nM

### Prompt IC50 lookup needed for C=C(CO)C(=O)Nc1cccc([C@@H]2c3c(C)nn(-c4ccccc4)c3N(CC)C(=O)[C@H]2NC(=O)c2cccc(C(F)(F)F)c2)c1 (racemic) , thanks.
### Response 200 to 1000 nM
